- target of assay: T1, A1 protein (mouse, residues 1-152, P104K C113S, used as wild type) (mouse)
- T1 sequence (Q07440 1-152 with P104K C113S, looked up): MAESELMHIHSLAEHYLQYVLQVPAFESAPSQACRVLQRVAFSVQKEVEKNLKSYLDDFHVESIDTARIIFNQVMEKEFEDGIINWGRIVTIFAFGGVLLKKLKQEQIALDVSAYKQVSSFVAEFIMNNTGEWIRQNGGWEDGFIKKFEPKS
- measurement protocol: stopped-flow fluorescence kinetics; association; TAMRA-labelled peptide with folded partner at least 10-fold higher (pseudo-first-order); kon from the gradient of kobs versus partner concentration; 25 °C; 50 mM sodium phosphate, 0.05% (v/v) Tween 20, pH 7.0
Where no end group is shown, it is not given here. The star is where a group is joined. TAMRA = 5-carboxytetramethylrhodamine, CN(C)c1ccc2c(-c3ccc(C(=O)*)cc3C(=O)[O-])c3ccc(=[N+](C)C)cc-3oc2c1
measured metric: kon (M⁻¹ s⁻¹)

binder	measured metric	result value
{TAMRA}-RVEEEEWAREIGAQLRRAADDLNAQAERRRQEEQH [PUMA Y152A peptide (on the M144A wild type), TAMRA-labelled]	kon	5.1e+06
{TAMRA}-RVEEEEWAREIGAQLRRAADDLNAQYERRRQEEQH [PUMA peptide (mouse, residues 127-161, M144A, used as wild type), TAMRA-labelled]	kon	5.9e+06
{TAMRA}-SESQEEIIHNIARHLAQIGDAMDHNIQPTLVRQLA (peptide, UniProt P70444 76-110, looked up, BID, mouse, residues 76-110, UniProt P70444; source: synthetic peptide (Biomatik)) [BID E96A peptide, TAMRA-labelled]	kon	1e+07
{TAMRA}-SESQEEIIHNAARHLAQIGDEMDHNIQPTLVRQLA (peptide, UniProt P70444 76-110, looked up, BID, mouse, residues 76-110, UniProt P70444; source: synthetic peptide (Biomatik)) [BID I86A peptide, TAMRA-labelled]	kon	2.9e+06
